meta.source: patent US8178506B2

# Test system: adipocytes
# Assay Details: Triglyceride accumulation assay in adipocytes
# Assay type: cell-based, human
# Condition Summary: Table 17; differentiating adipocytes; control = treatment with ISIS 342673
In the oligonucleotide strings, read from the 5' end, every base follows the letter of its sugar. An asterisk marks phosphorothioate; unmarked linkages are phosphodiester. Other units and linkages are bracketed, terminal groups are in braces. A string of capitals states the bases alone. e = 2'-O-(2-methoxyethyl) (MOE); [5mC] = 5-methylcytosine
Could you please report measured TG (triglyceride accumulation) for the items listed next?

(Q) Suppose we examine the substance 328131 (antisense eA*eT*eA*eT*eG*eT*e[5mC]*eA*eT*eA*eT*e[5mC]*eA*eA*eA*e[5mC]*eT*e[5mC]*e[5mC]*eT*eA) [compound 328131] ; what TG (triglyceride accumulation) value has been reported?
(A) 89.1 percentage of control

(Q) State the recorded TG (triglyceride accumulation) for this entry: 328117 (antisense eT*e[5mC]*e[5mC]*eA*e[5mC]*eA*eA*eA*eG*e[5mC]*eT*eG*eA*eA*e[5mC]*eA*eT*eG*eT*e[5mC]*eT) [compound 328117]
(A) 55.0 percentage of control

(Q) Please report the recorded TG (triglyceride accumulation) for 328132 (antisense eG*eT*eG*eA*eG*eA*eG*eT*eA*eG*e[5mC]*eA*eT*eG*eT*eT*eT*eG*eT*e[5mC]*eT) [compound 328132] .
(A) 114.1 percentage of control

(Q) Entry 328120 (antisense eA*eA*eG*eA*eA*eG*eG*eA*eA*eG*eG*eA*eG*eG*eG*eA*eA*eA*eG*e[5mC]*eA) [compound 328120] : reported TG (triglyceride accumulation) = ?
(A) 82.7 percentage of control

(Q) Which measured TG (triglyceride accumulation) value corresponds to 328136 (eA*eA*e[5mC]*eT*eA*e[5mC]*eT*eT*e[5mC]*e[5mC]*eA*eG*eA*eG*e[5mC]*eA*eG*eG*eT*eG*eA; anti-miR) [compound 328136] ?
(A) 47.0 percentage of control
